test system: rabbit red blood cells; assay type: cell-based; conditions: red cells of rabbit, 1 h
Non-standard residues stand in square brackets, D forms with d. Residues, ends and D or L forms follow the SMILES beside them. Phe(4-Cl) = N[C@@H](Cc1ccc(Cl)cc1)C(=O)O; 2Nal = N[C@@H](Cc1ccc2ccccc2c1)C(=O)O; d2Nal = N[C@H](Cc1ccc2ccccc2c1)C(=O)O
property.label: MHC (minimum hemolytic concentration, lowest concentration causing 10% hemolysis)

INSERT INTO results (compound, result) VALUES
  ('CC(=O)N[C@@H](CCCNC(=N)N)C(=O)N[C@@H](CCCCN)C(=O)N[C@@H](CC(C)C)C(=O)N[C@@H](CC(C)C)C(=O)N[C@@H](Cc1ccc2ccccc2c1)C(=O)N[C@@H](CCCNC(=N)N)C(=O)N[C@@H](CC(C)C)C(=O)N[C@@H](CCCCN)C(=O)N[C@@H](Cc1ccccc1)C(=O)N[C@@H](CCCNC(=N)N)C(=O)N[C@@H](CCCCN)C(N)=O [LV-34] (Ac-RKLL[2Nal]RLKFRK-NH2)', '>1000 µg/mL'),
  ('CC(=O)N[C@H](CCCCN)C(=O)N[C@H](CCCCN)C(=O)N[C@H](CC(C)C)C(=O)N[C@H](CC(C)C)C(=O)N[C@H](Cc1ccc2ccccc2c1)C(=O)N[C@H](CCCNC(=N)N)C(=O)N[C@H](CC(C)C)C(=O)N[C@H](CCCCN)C(=O)N[C@H](Cc1ccc2ccccc2c1)C(=O)N[C@H](CCCNC(=N)N)C(=O)N[C@H](CCCCN)C(N)=O [LV-19] (Ac-[dK][dK][dL][dL][d2Nal][dR][dL][dK][d2Nal][dR][dK]-NH2)', '>1000 µg/mL'),
  ('CC(=O)N[C@@H](CCCNC(=N)N)C(=O)N[C@@H](CCCCN)C(=O)N[C@@H](CC(C)C)C(=O)N[C@@H](CC(C)C)C(=O)N[C@@H](Cc1ccc(Cl)cc1)C(=O)N[C@@H](CCCCN)C(=O)N[C@@H](CC(C)C)C(=O)N[C@@H](CCCCN)C(=O)N[C@@H](Cc1ccc(Cl)cc1)C(=O)N[C@@H](CCCCN)C(=O)N[C@@H](CCCNC(=N)N)C(N)=O [LV-37] (Ac-RKLL[Phe(4-Cl)]KLK[Phe(4-Cl)]KR-NH2)', '>1000 µg/mL');
